Values from the nanobody polyreactivity screen of Harvey et al. (2022)

# test_description: yeast display, Sf9 membrane polyspecificity reagent, FACS + sequencing; frameworks hold sequencing errors
quantity_kind: polyreactivity (PSR sort gate)

Some solved entries appear below for comparison.
QVQLVHSGGRLVQAGGRLRLSCAASGSTFSSYARGRYIQGPRKERELVAAISWNGGSTYYADSVKGRFTISRDNAKNTVYLQMNSLKPQDTAVYYCAAIYFRNTYSYGMDYWGQGTQVTVSS = high polyreactivity
QVQLVESGGGLVQAGGSLRLSCAASGSTFLSYAMGWYRQAPGKEREMVAAISYSAGSTYYADSVKGRFTISRDNAKNTVYLQMNSLKPEDTAVYYCGAVQLVPGYVDSNDYYWGQGTQVTVSS = low polyreactivity
QVQLVDSAGCLVQAGGTLRLSGSASGSIFDAYAMGWYRQAPGKERELVASITSGGRTTYADSVKGRFTISRDNALNTVYLQMNSLKPEDTAVYYCAALRPGPRDDYWGQGSQVTVSS = high polyreactivity
QVQLVESGGGLVQAGGSLRLSCAASGSTSSVYDMGWYRQEPGKERELVAGIDYSAGSTYYADSVKGRFTISRDNAKNTVYLQMNSLKPEDTAVYYCDADAAYYSGYDYWGQGTQVTVSS = low polyreactivity
QVQLVESGGGLVQAGGSLRLSCAASGIIFNYYAMGWYRQAPGKERELVAAISFSGGRTYYADSVKGRFTISRDNAKNTVYLQMNCLKPEDTAVYYCNAVYRNSILAFPGEYDYWGQGTQVTVSS = high polyreactivity

State recorded polyreactivity (PSR sort gate) for all listed sequences.
1. QVHLEESGGGLVQAGGSLRLSCAASGSIFGDNAKGWYRQAPGKERELVAAISSSGGSTYADSVKGRFTISRDNAKNTVYLQMNSLKPEDTAVYYCATQIAWCTYVINPQMDFWGQGTLVTVSS
2. QVQLVESGGGLVQAGGSLRLSCAASGFTASYAMGWYRQAPWKERELVATINSGGGSTRYADSVKGRFTISRDNAKNTVYLQMNSLKPEDTAVYYCAKRWRRNFDYWGQGTQVTVSS
3. QVQLVESGGGLVQAGGSLRLSCAASGGTFWYYAMGWYRQAPGKEREFVAAISSRGGNTYYADSVKGRFTISRDNAKNTVYLQMNSLKPEDTAVYYCNAKTHRRYSENYYWGQGTQVTVSS
4. QVQLVESGGGLVQAGGSLRLSCAASGFTFSAYAMGWYRQAPGKERELVAAISRRGGSTYYADSVKGRFTISRDTAKNTVYLQMNSVKPEDTAVYYCATDYPPGYDYWGQGTQVSVSS
5. QVQLVESGGGLVQAGGSLRLSCAASGFTFKWYTRGWYRQAPGKERELVAAISTRGGSTYYADSVKGRFTISRDNAKNTVYLQMNSLKPEDTAVYYCAAVYRRGSGYDYWGQGTQVTVSS
6. QVQLVESGGGLVQAGGSLRLSCAASGFIIQGNAMGRYRQAPGKERELVAAISSSVSTYYADSVKGRFTISRDNAKNTVYLQMNSLKPEDTAVYYCNAGFPLSLWLGDYWGQGTQVTVSS

stdout:
low polyreactivity
high polyreactivity
high polyreactivity
high polyreactivity
high polyreactivity
low polyreactivity

---

# test_description: yeast display, Sf9 membrane polyspecificity reagent, FACS + sequencing; frameworks hold sequencing errors
quantity_kind: polyreactivity (PSR sort gate)

These recorded examples may help you get a feel for the data.
QVQLVESVGGLVEAGGRLGISCDDSGIIFRVNTIGCYRQAPGKERELVARSTGAGNKYYADSVKGRFTISRDNAKTTVYLQMNSLKPKDTAVYYCAVREFDNRRVIFYYWGQGTQVTVLS = high polyreactivity
QVQLVESGGGLVQAGGSLRLSCAASGYTFWDYAMGWYRQAPGKEREFVAGISFSDGGTYYADSVKGRFTITRDNAKNTVYLQMNSLKPEDTAVYYCAATYPYSWVYSGYYYWGQGTQVTVSS = low polyreactivity
QVQLVESGGGLVQAGGSLRLSCAASGRTFAWYAMGWYIEAPGKERELVAAISSGGSTYYADSVKGRFTISRDNAKNTVYLQMNSLKPEDTAVYYCATRYAIAGWVGYYYWGQCTQVTVSS = low polyreactivity
QVQLVESGGGLVQAGGSLRLSCAASGIIFQRNAMGWYRQAPGQERELVAAISSGGRTYYADSVKGRFTISRDNAKNTVYLQMNSLKPEDTAVYYCNAASYSRGRARYDYWGQGTQVTVSS = high polyreactivity
QVQLVESGGGLVQAGGSLRLSCAASGSTSIEYGMGWYRQAPGKERELVATISIGSSTNYADSVKGRFTISRDNAKNTVYLQMNSLKPEDTAVYYCAADAYLDYYTGYYYQEYDSWGQGTQVTVSS = low polyreactivity

Working through the 6 sequences below one at a time, give polyreactivity (PSR sort gate) for each.
1. QVQLVESGGGLVQAVGRLRLSCAASGFTFPWYAMGWYRHAPGKERELVAAISTSGDSTYYADSVKGRFTISRDNAKNTVYLQMNSLKPADTAVYYCAARVVRGRYGYWGQGTQVTVSS
2. QVQLVESGGGLVQAGGSLRLSCAASGFIFGQYAMGWYRQAPGKERELVAAISWSGGRTNYADSVKGRFTISRDNAKYTVYLQMNSLKPEDTAVSYCAARKGKYPQYTYGYWGQGTQVSVSS
3. QVQLVESGGGLVQAGGSLRLSCAASGSIFSTYVMGWYRQAPGKERELVAAITVSVGSTYYADSVKGRFTISRDNAKNTVYLQMNSLKPEDTAVYYCAAYGGTGYPFDAYYHDYDYWGQGTQVSVSS
4. QVQLVESGGGLVQAGASLRLSCAASVIIFKIYAMGWYRQAPGKERELVAAITRSGTRTYYADSVKGRFTISRDNAKNTVYLQMNSLKPEDTAVYYCNAYTTLAYDLDYWGQGTQVTVSS
5. QVQLVESGGGLVQAGGSLRLSCAASGFIFAYNAMGWYRQAPGKERELVAAISWSGGSTYYADYVKGRFTISRDNAKNTVYLQMNSLKPEDTAVYYCNAVSYYGARYDYWGQGTQVTVSS
6. QVQLVESGGGLVQAGGSLRLSCAASGGTFYYNAMGWYRQAPGKERELVAGITQSGGNTYYADSVKGRFTISRDNAKNTDYLQMNSLKPEDTAVYYCAARIRGTWKYGYWGQGTQVTVSS

stdout:
1: high polyreactivity; 2: high polyreactivity; 3: low polyreactivity; 4: high polyreactivity; 5: high polyreactivity; 6: low polyreactivity

For every item in the list below, what is its measured polyreactivity (PSR sort gate)?
1. QVQLVESGGGLVQAGGSLRLSCAASGSIFDSYANGWSRQAPGKERELVAAISSRGGRTYYADSVKGRFTISRDNAKNTVYLQMNSLKPEDTAVYYCAAGLYRYYWYGFDYWGQGTQVTVSS
2. QVQLVESGGGLVQAGGSLRLSCAASGFTFHYYGMGWYRQAPGKERELVAAINWSGSSTYYADSVKGRFTISRDNATNTVYLQMNSLKPEDSAVYYCAAEKRKLFQGVARYRYEYWGQGTQVTVSS
3. QVQLVESGGGLVQARGSLRLTCAASGNIFVSYAMGWYRPAPGKERELVAAISKRGGSTYYADSVKGRFTISRDNAKNTVDLQMISLKPEDTAVYYCAALGHVDDSIYDYWGQGTQVTVSS
4. QVQLVESGGGLVQAGGSLRLSCAASGSTFAINTMGSYREAPGKERELVAAISWSGGSTYYADSVKGRFTISRDNAKNTVYLQMNSLKPEDTAVYYCAARVPGWYVPGYNVYYWGQGTQVTVSS
5. QVQLVESGGCLVQAGGSLRLSCAASGHIFTFYAMGWYRQAPGKERELVATIRWSGGSTYYADSVKGRFTISRDNAKNTVYLQMNSLKPEDTAVYYCAATYYPSSYVQRLDYWGQGTQVTVSS
6. QVQLVESGGGLVQAGGSLRLSCAASGRIFCDNGMGWYRQAPAKESELVTYADSVKGLFTISRDNAKNTVYLQMNSLKPEDTAVYYCNKDPPRFSGLDENYWGQGTQVTVSS
7. QVQLVESGGGLVQAGGSLRLSCAASGSIFGWYAKGLYRQAPGKEREFVAVISSSGDSTFYADSVKGRFTISRDNAKNTVYLQMNSLKPEDTAVYYCAAYYYYYYWPQTAYWQGDYWGHGTQVTVSS
8. QVQLVESGGGLVQAGGSLRLSCAASGSILDSNAMGWYRQAPGKERELVAAITSGGSTYYADSVKGRFTISRDNAKNTVYLQMNSLKPEETAVYYCAAAYLGYGAVQPSYEGGYWGQGTQVTVSS

stdout:
["high polyreactivity", "low polyreactivity", "high polyreactivity", "high polyreactivity", "low polyreactivity", "low polyreactivity", "high polyreactivity", "low polyreactivity"]

Could I get polyreactivity (PSR sort gate) for every one of these entries?
1. QVQLVESGGGLVQAGGSLRLSCAASGRIFVGYAMGWYRPAPGKERELVAAINRSGSCTYYADSVKVRFTISRDNAKITGYLQMNSLKPEDTAVYYCNARSGNRYGPRYDDWGQGTQVTVSS
2. QVQLVESGGGLVQAGGSLRLSCAASGSIFDLNAMGWYRQAPGKERELVAAISSGGGTYYADSVKGRFTISRDNAKNTVYLKMNSLKPEDTAVYYCKRVTRWTYNYWGQGTQVSVSS

stdout:
1: high polyreactivity; 2: high polyreactivity
